These measurements were taken from PubChem BioAssay (NCATS).

// reported activity, negative = inhibition for each item listed
Experiment: Stat Signaling Pathway (AID 446);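 further: ME-180 cervical cancer cells given 40 pM IL-6 alongside compound; SIE-controlled beta-lactamase reporter measured as 460/530 nm FRET emission ratio; on the % scale 0 is the no-effect control and ±100 the full control effect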
Details: ME-180 (cervical carcinoma) SIE beta-lactamase reporter, IL-6 stimulated, 5 h; at 7.69 µM (top of the series) unless noted
Experimental: NCGC Assay Overview: The IL-6/STAT signaling pathway was assayed in ME-180 cervical carcinoma cells by a beta-lactamase reporter gene controlled by a STAT Inducible Element (SIE). This reporter is induced by IL-6 at 40 pM AC50 and inhibited by the pan JAK inhibitor, 2-(1,1-Dimethylethyl)-9-fluoro-3,6-dihydro-7H-benz[h]-imidaz[4,5-f]isoquinolin-7-one, at approximately 10 nM AC50. Plated cells were incubated overnight and on the following day, stimulated with 40 pM IL-6 for 5 hrs. […]
Records with an inconclusive call do not appear. Calls of active or inactive are those of the source. The call rests on the fitted dose curve; in most records, active means well fitted curve in either direction with a large enough effect (not every such curve was filed as active); inconclusive means small, poorly fitted or top-dose-only effect, or another doubt; inactive means flat fitted curve, though single readings scatter.
measurement label: activity, negative = inhibition

>>> value_measured("CC(C)(CO[C@H]1C[C@H]2CC[C@@]1(C)C2(C)C)[N+](=O)[O-]")
"-3.85% (inactive)"
>>> value_measured("O=C(O)[C@@H]1[C@@H]2O[C@H]([C@@H](Br)[C@H]2Br)[C@H]1C(=O)O")
"-2.12% (inactive)"
>>> value_measured("CS(=O)(=O)c1ccc(/C=N\\NC(N)=S)cc1")
"-2.81% (inactive)"
>>> value_measured("c1ccc2sc(SCN(C3CCCCC3)C3CCCCC3)nc2c1")
"-3.43% (inactive)"
>>> value_measured("CSc1nc(N)c2ncn([C@@H]3O[C@@H](COP(=O)(O)OP(=O)(O)O)[C@@H](O)[C@H]3O)c2n1")
"5.34% [at 38 µM] (inactive)"
>>> value_measured("O=C1CCC(c2ccccc2)(c2ccccc2)CC1")
"1.75% (inactive)"
>>> value_measured("O=C(O)[C@@H]1[C@@H](C(=O)NCc2ccccn2)[C@@H]2C=C[C@@H]1O2")
"-3.58% (inactive)"
>>> value_measured("CN(C)CCCn1cnc2cc(Cl)c(Cl)cc21")
"11.7% (inactive)"
>>> value_measured("Nc1nc2c(ncn2[C@H]2CC[C@@H](CO)O2)c(=O)n1C(=O)c1ccccc1")
"0.604% (inactive)"
>>> value_measured("N#CCCn1c(=O)c(-c2ccccc2)nc2cnc(Oc3cccc(Cl)c3)nc21")
"-4.6% (inactive)"
>>> value_measured("O[C@@H](C1=C/C(=C\\c2ccncc2)c2ccccc21)c1ccncc1")
"-15.9% (inactive)"
>>> value_measured("N=C(N)SCc1cccc(-c2nc3ccccc3c(=O)o2)c1")
"2.22% (inactive)"
>>> value_measured("C=C(Br)CN(C)CC(=C)Br")
"-0.267% (inactive)"
>>> value_measured("O=C(O)CC[P+](c1ccccc1)(c1ccccc1)c1ccccc1")
"4.75% (inactive)"
>>> value_measured("COC(=O)N1CCC2(CCCN(Cc3cc(C(F)(F)F)cc(C(F)(F)F)c3)C2)CC1")
"-1.27% (inactive)"
>>> value_measured("NC(=O)N/N=C1\\CC[C@H](O)C[C@@H]1CC(=O)O")
"0.119% (inactive)"
>>> value_measured("CC(C)(C)c1onc(OCP(=O)(O)O)c1C[C@@H](N)C(=O)O")
"-10.4% [at 38 µM] (inactive)"
>>> value_measured("O[C@H](CNc1ccccn1)c1ccccc1")
"4.88% (inactive)"
>>> value_measured("O=C(O)c1ccc(C(=O)O)c(C(=O)O)c1.[NH-][C@@H]1CCCC[C@@H]1[NH-].[Pt]")
"-6.09% (inactive)"
>>> value_measured("COc1ccc(NCc2c(O)ccc3ccccc23)cc1")
"-5.4% (inactive)"
>>> value_measured("C[C@@]1(CCOCc2ccccc2)NC(=O)NC1=O")
"8.58% (inactive)"
>>> value_measured("c1ccc2c(CSCc3cccc4ccccc34)cccc2c1")
"17.1% (inactive)"
>>> value_measured("O=C(O)c1ccc(Cc2ccccc2C(=O)O)cc1")
"-2.65% (inactive)"
>>> value_measured("N#CC(CC(=O)O)=C(c1ccccc1)c1ccccc1")
"1.35% (inactive)"
>>> value_measured("Cc1cn([C@H]2C[C@H](O)[C@@H](COC(N)=O)O2)c(=O)[nH]c1=O")
"6.97% (inactive)"
>>> value_measured("O=S(=O)(c1ccccc1)N1CCN(S(=O)(=O)c2ccccc2)c2ccccc21")
"-7.57% (inactive)"
>>> value_measured("Nc1cc(S(=O)(=O)O)cc2ccc(S(=O)(=O)O)cc12")
"-1.78% (inactive)"
>>> value_measured("CN1CCC[C@@H]1c1cccnc1.O=C(O)c1ccccc1O.O=C([OH2+])c1ccccc1O.O=C([OH2+])c1ccccc1O.O=C([OH2+])c1ccccc1O.[Mn]")
"-11.4% (inactive)"
>>> value_measured("NS(=O)(=O)c1cc2c(cc1Cl)N[C@H](Cc1ccccc1)NS2(=O)=O")
"1.94% (inactive)"
>>> value_measured("O=S1(=O)N[C@H]2CC[C@@H]3NS(=O)(=O)N[C@H]4CC[C@H](N1)N4S(=O)(=O)N23")
"-2.8% (inactive)"
>>> value_measured("Oc1ccc(Cl)cc1C=Nc1cnc2ccccc2c1")
"-10.7% (inactive)"
>>> value_measured("CN(C)C(=O)/N=N\\C(=O)N(C)C")
"5.55% [at 38 µM] (inactive)"
>>> value_measured("Cn1cnc([N+](=O)[O-])c1Sc1nnc(-c2cccnc2)n1C")
"4.54% (inactive)"
>>> value_measured("COc1ccc(Cc2ccc3[nH]c(=O)cc(C)c3c2)cc1S(=O)(=O)O")
"5.41% (inactive)"
>>> value_measured("COc1ccc(Oc2ncc3nc(CCc4ccccc4)c(=O)n(C4CC4)c3n2)cc1")
"-0.549% (inactive)"
>>> value_measured("OC[C@@H]1O[C@@H](n2cnc3c(N[C@@H]4C[C@@H]5CC[C@H]4C5)ncnc32)[C@@H](O)[C@H]1O")
"24.8% [at 38 µM] (inactive)"
>>> value_measured("O=S(=O)(c1ccc2ccccc2c1)N1CCN(S(=O)(=O)c2ccc3ccccc3c2)CC1")
"0.106% (inactive)"
>>> value_measured("CN(C)CCSCCO")
"9.73% (inactive)"
>>> value_measured("COc1ccc(C[C@H](O)CN2CCOCC2)cc1")
"9.2% (inactive)"
>>> value_measured("FC(F)(F)c1nc(SCc2ccc(Cl)cc2)n[nH]1")
"-0.49% (inactive)"
>>> value_measured("C=CCNS(=O)(=O)c1ncnc2nc[nH]c12")
"14.4% (inactive)"
>>> value_measured("O=c1[nH]c(=S)c2[nH]c(=O)n(-c3ccccc3)c2[nH]1")
"8.32% (inactive)"
>>> value_measured("CC#C[C@@]1(O)CC[C@@H]2[C@@H]3CCC4=CC(=O)CCC4=C3[C@@H](c3ccc(N(C)C)cc3)C[C@]21C")
"-20.9% [at 38 µM] (inactive)"
>>> value_measured("Cc1ccn2c(CCc3nnc4cc(C)ccn34)nnc2c1")
"-6.72% (inactive)"

* * *

// reported Potency for each item listed
Molecular target: Glucocorticoid receptor (Homo sapiens)
Assay: GR-EFC Redistribution (AID 451); further: potency means the concentration at half of the fitted maximal effect
Conditions: CHO-K1 GR-EFC translocation, beta-gal luminescence, 2 h
Experimental: NIH Molecular Libraries Screening Centers Network [MLSCN] NIH Chemical Genomics Center [NCGC] The glucocorticoid receptor (GR) is a cytoplasmic receptor that belongs to the nuclear receptor family of ligand-dependent transcription factors. […] GR-translocation was measured beta-gal enzyme activity using the PathHunter Detection Kit containing cell membrane permeablizing reagent and beta-gal substrate (DiscoveRx, Fremont, CA). […] Read plate in luminescence mode in ViewLux plate reader (PerkinElmer) […]
The source made the active and inactive calls. Calls come from the whole dose curve.
measurement label: Potency

>>> value_measured("Cc1ccc(C(N)=Nc2ccccc2)cc1")
"> 9.22 µM (inactive)"
>>> value_measured("NCCNS(=O)(=O)c1ccc(N)cc1")
"> 9.22 µM (inactive)"
>>> value_measured("N=C(N)CCNC(=O)[C@@H]1CCC(N)=N1")
"> 9.22 µM (inactive)"
>>> value_measured("O=S1(=O)N[C@H]2CC[C@@H]3NS(=O)(=O)N[C@H]4CC[C@H](N1)N4S(=O)(=O)N23")
"> 9.22 µM (inactive)"
>>> value_measured("COc1cc2c3cc1Oc1c(OC)c(OC)cc4c1[C@@H](Cc1ccc(O)c(c1)Oc1ccc(cc1)C[C@@H]3N(C)CC2)CN(C)C4")
"> 9.22 µM (inactive)"
>>> value_measured("O=C(O)[C@@H]1CCCN1Cc1cc2ccccc2c2ccccc12")
"> 9.22 µM (inactive)"
>>> value_measured("NNC(=O)c1ccc(OCc2nc3ccccc3[nH]2)cc1")
"> 9.22 µM (inactive)"
>>> value_measured("Fc1cccc(F)c1C(Nc1nncs1)Nc1nncs1")
"> 9.22 µM (inactive)"
>>> value_measured("NS(=O)(=O)c1ccc(N=C2C(=O)Nc3ccccc32)cc1")
"> 9.22 µM (inactive)"
>>> value_measured("COc1ccc2cc1Oc1ccc(cc1)C[C@@H]1c3c(cc(OC)c4c3Oc3cc5c(cc3O4)CCN[C@H]5C2)CCN1C")
"> 9.22 µM (inactive)"
>>> value_measured("[O-][N+]1(CC[N+]2([O-])CCCCC2)CCCCC1")
"> 9.22 µM (inactive)"
>>> value_measured("NC(N)=NC(N)=Nc1ccc(C(=O)O)cc1")
"> 9.22 µM (inactive)"
>>> value_measured("CC(=NCC(=O)O)c1ccccc1")
"> 9.22 µM (inactive)"
>>> value_measured("Fc1cccc(Cl)c1/C=N\\N=C1c2ccccc2-c2ccccc21")
"> 9.22 µM (inactive)"
>>> value_measured("COC(=O)[C@@H]1[C@H]2C[C@H]3c4[nH]c5cc(OC)ccc5c4CCN3C[C@@H]2C[C@@H](OC(=O)c2cc(OC)c(OC)c(OC)c2)[C@@H]1OC")
"> 46 µM (inactive)"
>>> value_measured("COc1ccc(Oc2ncc3nc(CCc4ccccc4)c(=O)n(C4CC4)c3n2)cc1")
"> 46 µM (inactive)"
>>> value_measured("C[C@@]12C[C@H](O)[C@@H]3[C@H](CCC4=CC(=O)CC[C@]43C)[C@H]1CC[C@@H]2c1csc(N)n1")
"> 9.22 µM (inactive)"
>>> value_measured("Nc1nc2c(ncn2[C@@H]2C=C[C@@H](CO)C2)c(=O)[nH]1")
"> 9.22 µM (inactive)"
>>> value_measured("CC1=c2c(oc3cc(O)c(Nc4c(C)cc(O)cc4O)c(C)c23)=CC(=O)C1=Nc1c(C)cc(O)cc1O")
"> 9.22 µM (inactive)"
>>> value_measured("O=C(O)CSCCc1ccccc1")
"> 9.22 µM (inactive)"
>>> value_measured("S[C@@H]1CCCN(Cc2ccccc2)C1")
"> 9.22 µM (inactive)"
>>> value_measured("CCOC(=O)c1c(O)[nH]c(=O)c(CC)c1C")
"> 9.22 µM (inactive)"
